Hello, the source for this data is patent US11866502B2, in case you need it.

Tested on: SNU-16 + NALM-6 Cells
Test: In vitro bystander assay, SNU-16 + NALM-6 coculture (1:1)
Format: cell-based
Settings: 120 h
endpoint: IC50 (pM)
Give the number; pM is assumed, so skip it.

(Q) Lab note: need IC50 for C#CCCCON(C(=O)[C@@H](NC(=O)[C@H]1CCCCN1C)[C@@H](C)CC)[C@H](C[C@@H](OC(C)=O)c1nc(C(=O)N[C@@H](Cc2ccc(N)cc2)CC(C)(C)C(=O)O)cs1)C(C)C [Tubulysin 1A] on SNU-16 + NALM-6 Cells, anyone have it?
(A) 166
